// reported fold change of Tryptamine concentration for each item listed
test system: Clostridium sporogenes DSM 1664; experiment: fold change of Tryptamine concentration vs plate DMSO controls (fold change (ratio)); higher = more amine produced, active = hit call of the paper (significant change in both replicates, either direction); conditions: incubation time: 27 h, anaerobic, 37 °C
Where a name gives a salt, the structure may show the parent alone.
Respond numerically, and do not add a unit to the figure.

// known answers, use as guide
Molecule	fold change of Tryptamine concentration
CN[C@@H]1[C@H](O[C@H]2[C@H](O[C@H]3[C@H](O)[C@@H](O)[C@H](N=C(N)N)[C@@H](O)[C@@H]3N=C(N)N)O[C@@H](C)[C@]2(O)C=O)O[C@@H](CO)[C@H](O)[C@H]1O [Streptomycin sulfate] (20 µM)	1.12
Clc1ccccc1C(c1ccccc1)(c1ccccc1)n1ccnc1 [Clotrimazole] (20 µM)	0.977
OCCN1CCN(CCCN2c3ccccc3Sc3ccc(Cl)cc32)CC1 [Perphenazine] (20 µM)	0.999
C[C@H](Cc1cc2c(c(C(N)=O)c1)N(CCCO)CC2)NCCOc1ccccc1OCC(F)(F)F [Silodosin] (20 µM)	1.08

response.value for Clc1ccc(C(c2ccccc2Cl)C(Cl)Cl)cc1 (configuration not stated) [Mitotane] (20 µM) (field: fold change of Tryptamine concentration) = 0.997

Item: CCCc1cc(C(N)=S)ccn1 [Prothionamide] (20 µM) | fold change of Tryptamine concentration: 0.998

For C=CCc1ccccc1OCC(O)CNC(C)C (configuration not stated) [Alprenolol hydrochloride] (20 µM) the molecule record lists fold change of Tryptamine concentration as 1.07
